Tested on: NCI-H460
Experiment: NCI tumour cell line growth inhibition, 48 h
Activity calls are given as the source filed them. Cut-off read from the data, not from the text of the source: active = GI50 up to about 1.1 µM and inactive = higher.
Mark one answer only. Choices: active, inactive

Qu. GET /call?item= O=Cc1cc2c(o1)C(=O)c1ccccc1C2=O returns the recorded outcome of this test.
Ans. active

Qu. GET /call?item= C=CC(=O)NCNC(=O)C=C returns the recorded outcome of this test.
Ans. inactive

New cases:
Qu. GET /call?item= CC1(c2ccccc2)N=c2[nH]cnc2=C(C(N)=O)N1 (stereo unspecified) returns the recorded outcome of this test.
Ans. inactive

Qu. GET /call?item= CCN1CCC(O)(/C=C/c2cccc(C)c2)C(C(=O)/C=C/c2cccc(C)c2)C1 (stereo unspecified) returns the recorded outcome of this test.
Ans. inactive

src = ChEMBL document CHEMBL1201862
